Assay: in vitro
Set-up: species or system CCD841, HEK293
Conditions: human, hb2 cells, read-out: HB-2 Cells Viability (%)
metric: viability at 48 h, 10 µM (%)
Provide the reading as a plain figure in %.

For orientation, consider the following solved cases.
• CN(C)c1ccc(Cl)cc1NC(=O)CCl = 29.2
• O=C(CCl)Nc1cc(C(F)(F)F)ccc1N1CCOCC1 = 102
• O=C(CCl)NC(=O)NC1CC1 = 96.7
• CCOC(=O)N1CCC(NC(=O)CCl)CC1 = 61.8
• C=CC(=O)NC1CCN(c2ccc(C(F)(F)F)cn2)CC1 = 103

// below: viability at 48 h, 10 µM requested for another compound
Ask: Any idea what viability at 48 h, 10 µM was measured for CC(C)c1cc(NC(=O)CCl)on1 ?
Reply: 70.9

----------
Quick reference for viability at 48 h, 10 µM among some compounds
Experiment: in vitro
Design: species or system CCD841, HEK293
Settings: human, hb2 cells, read-out: HB-2 Cells Viability (%)
Provide the reading as a plain figure in %.

• CN(C(=O)CCl)c1nccs1 [PCM-0102975] = 99.8
• O=C(CCl)Nc1ccc2c(c1)OC1(CCCC1)O2 [PCM-0102801] = 8.5
• Cc1ccc(-c2nnc(C)[nH]2)c(NC(=O)CCl)c1 [PCM-0102775] = 61.1
• N#Cc1ccsc1NC(=O)CCl [PCM-0102768] = 46.1
• CC1CCCC(NC(=O)CCl)C1C (centres unmarked) [PCM-0102663] = 98.5

Ask: Any idea what viability at 48 h, 10 µM was measured for Cc1ccc(S(N)(=O)=O)cc1NC(=O)CCl [PCM-0102744] ?
Reply: 54.4

Ask: Quick one: CN(C(=O)CCl)C1(c2ccccc2Cl)CCCCC1=O (centres unmarked) [PCM-0102359]
Reply: 85.2

Ask: Quick one: O=C(CCl)Nc1nc(-c2cc(F)ccc2F)cs1 [PCM-0102496]
Reply: 3.9

Ask: Quick one: O=C(CCl)Nc1cc(Cl)ccc1F [PCM-0102762]
Reply: 11.4

Ask: Quick one: COCC(=O)NNC(=O)CCl [PCM-0103070]
Reply: 95.3

Ask: Quick one: CC1CCC(NC(=O)CCl)CC1 (centres unmarked) [PCM-0102913]
Reply: 96.2

----------
Quick reference for viability at 48 h, 10 µM among some compounds
Assay: in vitro
Set-up: species or system HB2, CCD841
Details: human, hek293 cells
Provide the reading as a plain figure in %.

For orientation, consider the following solved cases.
• N#Cc1oc2ccccc2c1NC(=O)CCl [PCM-0102252] = 3.4
• O=C(CCl)NC(=O)NC12CC3CC(CC(C3)C1)C2 [PCM-0102360] = 46.7
• O=C(CCl)Nc1ccc(Br)cc1F [PCM-0102926] = 32.5
• C=CC(=O)Nc1cc(F)cc(F)c1 [PCM-0103039] = 67.1
• C=CC(=O)N1CCC2(CC1)CCS(=O)(=O)CC2 [PCM-0102559] = 113

// below: viability at 48 h, 10 µM requested for another compound
Ask: Any idea what viability at 48 h, 10 µM was measured for C=CC(=O)N1CCCC(S(=O)(=O)N2CCOCC2)C1 (centres unmarked) [PCM-0102849] ?
Reply: 97.9
